targetOfAssay: T1, recombinant human IL-6R sR (R&D systems) (human, UniProt P08887 20-358)
T1 construct: Bought soluble receptor; also called rhIL-6sR; rhIL-s6R
T1 sequence (looked up): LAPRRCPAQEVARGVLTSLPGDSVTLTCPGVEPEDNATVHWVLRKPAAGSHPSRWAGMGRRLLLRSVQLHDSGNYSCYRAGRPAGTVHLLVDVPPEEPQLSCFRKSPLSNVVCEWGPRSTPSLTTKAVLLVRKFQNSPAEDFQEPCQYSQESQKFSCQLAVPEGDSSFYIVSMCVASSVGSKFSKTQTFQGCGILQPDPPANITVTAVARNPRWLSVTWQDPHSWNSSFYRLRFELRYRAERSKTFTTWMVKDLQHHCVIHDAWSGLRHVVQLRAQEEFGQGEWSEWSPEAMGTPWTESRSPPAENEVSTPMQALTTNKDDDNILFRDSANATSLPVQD
experimentSummary: SPR (Biacore T100), antibody captured on Protein A, rhIL-6sR as analyte, 25 C
Protocol: The antigen-antibody interaction was measured by immobilizing 4,400 to 5,000 RU of rec-Protein A (Zymed) immobilized onto a sensor chip by the amine coupling method, binding various antibodies onto the chip, and then flowing the antigen over the chip as an analyte. […] The kinetic parameters, association rate constant kₐ (1/Ms) and dissociation rate constant kd (1/s) were calculated from the sensorgrams obtained by measurement. Then, KD (M) was determined based on the rate constants. […]
readoutName: Kd (nM)
Numbers only, in nM.

>  <binder>
RDC-3 (antibody, V domains shown, also called RDC-3H/L(WT)) VH: QVQLQESGPGLVRPSQTLSLTCTVSGYSITSDHAWSWVRQPPGRGLEWIGYISYSGITTYNPSLKSRVTMLRDTSKNQFSLRLSSVTAADTAVYYCARILARATAMDYWGQGSLVTVSS VL: DIQMTQSPSSLSASVGDRVTITCRASQDISSYLNWYQQKPGKAPKLLIYYTSRLHSGVPSRFSGSGSGTDFTFTISSLQPEDIATYYCQQGNTLPYTFGQGTKVEIK

>  <reportedValue>
0.037

$$$$
>  <binder>
RDC-2 (antibody, V domains shown, also called RDC-2H/L(WT)) VH: QVQLQESGPGLVRPSQTLSLTCTVSGYSITSDHAWSWVRQPPGRGLEWIGYISYSGITTYNPSLKSRVTMLRDTSKNQFSLRLSSVTAADTAVYYCARVLARATAMDYWGQGSLVTVSS VL: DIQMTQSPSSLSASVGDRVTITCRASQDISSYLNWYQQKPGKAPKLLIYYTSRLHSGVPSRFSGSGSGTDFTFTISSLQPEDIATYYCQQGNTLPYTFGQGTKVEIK

>  <reportedValue>
0.022

$$$$

Query (binder): RD-28 (antibody, V domains shown) VH: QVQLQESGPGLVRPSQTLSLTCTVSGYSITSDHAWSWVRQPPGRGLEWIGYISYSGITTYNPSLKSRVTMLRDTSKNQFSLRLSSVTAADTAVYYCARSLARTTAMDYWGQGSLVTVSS VL: DIQMTQSPSSLSASVGDRVTITCRASQDISSYLNWYQQKPGKAPKLLIYYTSRLHSGVPSRFSGSGSGTDFTFTISSLQPEDIATYYCGQGNTLPYTFGQGTKVEIK ; field requested: Kd
0.12
